Here the recorded Activity is given for each entry.
Test system: SK-N-BE(2)-C
Experiment: Activation of HIF-alpha transcriptional activity in human SK-N-BE(2)-C expressing HRE-NLuc reporter system assessed as compound concentration require for 5 fold increase in NLuc luciferase activity incubated for 24 hrs by Nano-Glo luciferase assay
Type: cell-based
Conditions: filed as activator
Quick note: give the figure in µM, leave out the unit.

Value of measured Activity for the entry CCCCCCCCc1ccc(C2CC(=C3C(=O)N(C)C(=O)N(C)C3=O)NN2C(C)=O)cc1 (stereo not drawn) : 12.9

Others:
Value of measured Activity for the entry CCCCCC(=O)N1NC(=C2C(=O)N(C3CCCCC3)C(=O)N(C3CCCCC3)C2=O)CC1c1ccccc1 (stereo not drawn) : 2.41

Value of measured Activity for the entry CC(=O)N1NC(=C2C(=O)N(C)C(=O)N(C)C2=O)CC1c1ccc(Cl)cc1 (stereo not drawn) : 9.1

====

System: SK-N-BE(2)-C
Assay: Activation of HIF-alpha transcriptional activity in human SK-N-BE(2)-C expressing HRE-NLuc reporter system assessed as compound concentration require for 5 fold increase in NLuc luciferase activity incubated for 24 hrs by Nano-Glo luciferase assay
Type: cell-based
Conditions: filed as activator
We'd kindly ask you to apply these Activity classes: low end (below 0.5 µM), middle (0.5 µM to below 7 µM), high end (7 µM or more)

IN: Hey, which category is CC(=O)N1NC(=C2C(=O)N(C3CCCCC3)C(=O)N(C3CCCCC3)C2=O)CC1c1ccccc1 (centres undefined) in, do you know?
OUT: middle

IN: Hey, which category is CC(=O)N1NC(=C2C(=O)N(C)C(=O)N(C)C2=O)CC1c1ccc(F)cc1 (centres undefined) in, do you know?
OUT: high end

IN: Hey, which category is CC(=O)N1NC(=C2C(=O)N(C)C(=O)N(C)C2=O)CC1c1ccccc1 (centres undefined) in, do you know?
OUT: high end

IN: Hey, which category is CCC(=O)N1NC(=C2C(=O)N(C)C(=O)N(C)C2=O)CC1c1ccccc1 (centres undefined) in, do you know?
OUT: middle

IN: Hey, which category is CCC(=O)N1NC(=C2C(=O)N(C3CCCCC3)C(=O)N(C3CCCCC3)C2=O)CC1c1ccccc1 (centres undefined) in, do you know?
OUT: low end

IN: Hey, which category is CC(=O)N1NC(=C2C(=O)N(C)C(=O)N(C)C2=O)CC1c1ccc(-c2ccccc2)cc1 (centres undefined) in, do you know?
OUT: middle

IN: Hey, which category is CC(C)C(=O)N1NC(=C2C(=O)N(C3CCCCC3)C(=O)N(C3CCCCC3)C2=O)CC1c1ccccc1 (centres undefined) in, do you know?
OUT: low end

Would you kindly look at the next entry?
IN: Hey, which category is CCCCCC(=O)N1NC(=C2C(=O)N(C)C(=O)N(C)C2=O)CC1c1ccccc1 (centres undefined) in, do you know?
OUT: middle

====

Here the recorded Activity is given for each entry.
Tested on: SK-N-BE(2)-C
Experiment: Activation of HIF-alpha transcriptional activity in human SK-N-BE(2)-C expressing HRE-NLuc reporter system assessed as compound concentration require for 5 fold increase in NLuc luciferase activity incubated for 24 hrs by Nano-Glo luciferase assay
Assay type: cell-based
Conditions: filed as activator
Quick note: give the figure in µM, leave out the unit.

Value of measured Activity for the entry CCCCCCCCCC(=O)N1NC(=C2C(=O)N(C)C(=O)N(C)C2=O)CC1c1ccccc1 (centres undefined) : 0.153

Value of measured Activity for the entry CCC(=O)N1NC(=C2C(=O)N(C)C(=O)N(C)C2=O)CC1c1ccc(-c2ccccc2)cc1 (centres undefined) : 3.87

Value of measured Activity for the entry CC(=O)N1NC(=C2C(=O)N(C)C(=O)N(C)C2=O)CC1c1ccc(C)cc1 (centres undefined) : 5.84

Value of measured Activity for the entry COc1ccc(C2CC(=C3C(=O)N(C)C(=O)N(C)C3=O)NN2C(C)=O)cc1 (centres undefined) : 19.5

Value of measured Activity for the entry COc1cccc(C2CC(=C3C(=O)N(C)C(=O)N(C)C3=O)NN2C(C)=O)c1Cl (centres undefined) : 26.1

Value of measured Activity for the entry CC(C)C(=O)N1NC(=C2C(=O)N(C)C(=O)N(C)C2=O)CC1c1ccccc1 (centres undefined) : 8.55

Value of measured Activity for the entry CCCC(=O)N1NC(=C2C(=O)N(C3CCCCC3)C(=O)N(C3CCCCC3)C2=O)CC1c1ccccc1 (centres undefined) : 0.441

Value of measured Activity for the entry CC(=O)N1NC(=C2C(=O)N(C)C(=O)N(C)C2=O)CC1c1ccc2ccccc2c1 (centres undefined) : 7.67

Value of measured Activity for the entry CCCC(=O)N1NC(=C2C(=O)N(C)C(=O)N(C)C2=O)CC1c1ccccc1 (centres undefined) : 4.85
